Sourced from patent US20110135573A1

studyTarget: mouse MMP-2 (R&D Systems #924-MP-010) (mouse) (UniProt P33434)
runDescription: Ki,app, enzyme inhibition assay (fluorogenic peptide substrate), IgG
Property: Ki; scope: individual binders
Enter your answer as a number in nM; do not include the unit.

Below are worked cases with known answers.
>  <binder>
X0106-C03 (antibody, V domains shown) VH: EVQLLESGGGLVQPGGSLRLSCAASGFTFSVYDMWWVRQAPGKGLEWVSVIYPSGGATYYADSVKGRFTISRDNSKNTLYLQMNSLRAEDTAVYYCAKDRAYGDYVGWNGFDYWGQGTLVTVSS VL: EIVLTQSPATLSLSPGERATLSCRASQSISSFLAWYQQKPGQAPRLLIYDASYRATGIPARFSGSGSGTDFTLTISSLEPEDFAVYYCQQRGNWPITFGQGTRLEIK

>  <measuredQuantity>
Ki

>  <unitAbbrev>
nM

>  <valueReported>
3.2

$$$$
>  <binder>
X0106-F05 (antibody, V domains shown) VH: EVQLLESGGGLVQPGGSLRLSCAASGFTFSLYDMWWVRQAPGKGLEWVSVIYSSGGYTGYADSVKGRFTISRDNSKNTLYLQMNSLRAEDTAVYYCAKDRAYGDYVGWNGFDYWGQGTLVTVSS VL: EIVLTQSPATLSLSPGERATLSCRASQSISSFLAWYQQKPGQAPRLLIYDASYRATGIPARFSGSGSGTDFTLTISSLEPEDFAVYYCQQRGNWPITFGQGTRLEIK

>  <measuredQuantity>
Ki

>  <unitAbbrev>
nM

>  <valueReported>
3

$$$$
>  <binder>
X0106-E04 (antibody, V domains shown) VH: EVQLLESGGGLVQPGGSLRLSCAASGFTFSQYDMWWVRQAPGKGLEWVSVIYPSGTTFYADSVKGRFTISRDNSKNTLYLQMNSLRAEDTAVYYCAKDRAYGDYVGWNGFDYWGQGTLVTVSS VL: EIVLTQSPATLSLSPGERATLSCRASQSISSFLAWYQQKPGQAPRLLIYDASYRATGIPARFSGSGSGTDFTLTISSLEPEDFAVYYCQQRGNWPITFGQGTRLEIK

>  <measuredQuantity>
Ki

>  <unitAbbrev>
nM

>  <valueReported>
3.9

$$$$
>  <binder>
539A-M0237-D02 hIgG1 (antibody, V domains shown) VH: EVQLLESGGGLVQPGGSLRLSCAASGFTFSQYPMWWVRQAPGKGLEWVSYIVPSGGRTYYADSVKGRFTISRDNSKNTLYLQMNSLRAEDTAVYYCAKDRAYGDYVGWNGFDYWGQGTLVTVSS VL: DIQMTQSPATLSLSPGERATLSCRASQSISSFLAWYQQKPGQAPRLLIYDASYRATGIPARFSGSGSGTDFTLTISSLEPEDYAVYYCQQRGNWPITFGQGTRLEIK

>  <measuredQuantity>
Ki

>  <unitAbbrev>
nM

>  <valueReported>
76

$$$$

# ---- query binder ----
Ask: Quote Ki reported for X0106-B02 (antibody, V domains shown) VH: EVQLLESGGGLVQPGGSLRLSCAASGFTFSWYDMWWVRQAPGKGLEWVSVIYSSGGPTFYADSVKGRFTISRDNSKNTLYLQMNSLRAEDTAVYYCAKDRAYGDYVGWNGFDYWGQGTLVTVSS VL: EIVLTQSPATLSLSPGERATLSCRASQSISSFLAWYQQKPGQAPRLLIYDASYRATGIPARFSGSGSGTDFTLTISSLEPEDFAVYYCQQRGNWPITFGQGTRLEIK please.
Reply: 4.2
